Assay: in vitro
Details: human, hela cells, % viability
The compounds listed here are annotated with their viability at 28.5 h, 10 µM.

- Compound: "Cc1sc2nc(C)n(C3CCNCC3)c(=O)c2c1C [CBK282421]"
  Reading Unit: "%"
  viability at 28.5 h, 10 µM: 113
- Compound: "CCOC(=O)C1(Cc2ccc(F)cc2F)CCCN(S(=O)(=O)CC)C1 (stereo not drawn) [CBK307655]"
  Reading Unit: "%"
  viability at 28.5 h, 10 µM: 92.6
- Compound: "N#CCCN(Cc1ccco1)C(=O)c1ccc(OCC2CC2)cc1 [CBK304051]"
  Reading Unit: "%"
  viability at 28.5 h, 10 µM: 85
- Compound: "COc1cc2c(cc1OC)CN(C(=O)Cc1ccccc1)CC2 [CBK122751]"
  Reading Unit: "%"
  viability at 28.5 h, 10 µM: 90.7
- Compound: "COC(=O)c1cc(C#N)c(=O)n(CC(O)COc2cccc(Br)c2)c1 (stereo not drawn) [CBK304984]"
  Reading Unit: "%"
  viability at 28.5 h, 10 µM: 80.5
- Compound: "O=C(O)CCCC(=O)NC12CC3CC(CC(C3)C1)C2 [CBK286958]"
  Reading Unit: "%"
  viability at 28.5 h, 10 µM: 97.4
- Compound: "O=C(c1nc2ccccc2[nH]1)N1CCC(F)CC1 [CBK200278]"
  Reading Unit: "%"
  viability at 28.5 h, 10 µM: 90.3
- Compound: "O=C(CN(c1ccccc1)S(=O)(=O)c1ccccc1[N+](=O)[O-])Nc1ccc(I)cc1 [CBK263755]"
  Reading Unit: "%"
  viability at 28.5 h, 10 µM: 58.3
- Compound: "Cc1ccc(C2=CCN(CC(=O)Nc3nccs3)CC2)o1 [CBK283557]"
  Reading Unit: "%"
  viability at 28.5 h, 10 µM: 93.7
- Compound: "Cn1c(=O)c2c(-c3ccccc3)onc2n(C)c1=O [CBK023569]"
  Reading Unit: "%"
  viability at 28.5 h, 10 µM: 85
- Compound: "Cc1nnc(SCC(=O)N2CCN(c3ccc(Cl)cc3)CC2)s1 [CBK307389]"
  Reading Unit: "%"
  viability at 28.5 h, 10 µM: 87.5
- Compound: "CN(C)Cc1ccccc1Cn1cncc1-c1cnn(C)c1 [CBK281764]"
  Reading Unit: "%"
  viability at 28.5 h, 10 µM: 99.5
- Compound: "Cn1cc(CNCCCN2CCc3ccccc32)c(-c2cccnc2)n1 [CBK306316]"
  Reading Unit: "%"
  viability at 28.5 h, 10 µM: 93.3
- Compound: "Cc1ccc(NC(=O)c2cnc3n(c2=O)CCS3)cc1 [CBK287376]"
  Reading Unit: "%"
  viability at 28.5 h, 10 µM: 108
- Compound: "CCOc1ccc(N2C(=O)CC(N3CCN(c4ccccn4)CC3)C2=O)cc1 (stereo not drawn) [CBK263285]"
  Reading Unit: "%"
  viability at 28.5 h, 10 µM: 100

----------
Assay: in vitro
Settings: human, hela cells, % viability
viability at 28.5 h, 10 µM overview

- Compound: "O=C(N/N=C/c1ccccc1Cl)c1ccc(C(=O)N/N=C/c2ccccc2Cl)cc1 [CBK261698]"
  viability at 28.5 h, 10 µM, %: 108
- Compound: "CC(C)(CNC(=O)Cn1cc(C(=O)NC2CCCCC2)ccc1=O)c1cccc(F)c1 [CBK286110]"
  viability at 28.5 h, 10 µM, %: 88.4
- Compound: "CCN(CC)CCN(C(=O)Nc1ccc(C(N)=O)cc1)C(C)c1ccc(OC)c(OC)c1 (stereo not shown) [CBK158962]"
  viability at 28.5 h, 10 µM, %: 108
- Compound: "O=C(N/N=C/c1c[nH]c2ccc(Br)cc12)c1ccncc1 [CBK262798]"
  viability at 28.5 h, 10 µM, %: 116
- Compound: "CC(C)c1ccc(/C=C/C(=O)N2CCN(C3CCN(C)CC3)CC2)cc1 [CBK149094]"
  viability at 28.5 h, 10 µM, %: 105
- Compound: "O=C(c1cccnc1)N1C[C@@H]2OCC(=O)N(Cc3ccc(F)cc3)[C@@H]2C1 [CBK289691]"
  viability at 28.5 h, 10 µM, %: 96.1
- Compound: "COc1ccc(S(=O)(=O)N2CCN(C(=S)Nc3ccc(S(N)(=O)=O)cc3)CC2)cc1 [CBK266898]"
  viability at 28.5 h, 10 µM, %: 92.6
- Compound: "O=[N+]([O-])c1ccc2c(c1)C=C1CCCCC1(NCc1ccccc1)O2 (stereo not shown) [CBK262716]"
  viability at 28.5 h, 10 µM, %: 98.8
- Compound: "COc1ccc(Cl)cc1CN(C)C(=O)c1cc(C(C)C)n2ncnc2n1 [CBK307331]"
  viability at 28.5 h, 10 µM, %: 84.7
- Compound: "Cc1cc(Cl)ccc1CNS(=O)(=O)c1cccs1 [CBK044714]"
  viability at 28.5 h, 10 µM, %: 97

----------
Each entry below carries its recorded viability at 28.5 h, 10 µM.
Assay: in vitro
Details: human, hela cells, % viability

- Molecule: "COc1ccc2[nH]cc(CC3CCNCC3)c2c1"
  Reading Unit: "%"
  viability at 28.5 h, 10 µM: 104
- Molecule: "COc1cc(-c2cn3ccnc3c(NC3CC3)n2)cc(OC)c1OC"
  Reading Unit: "%"
  viability at 28.5 h, 10 µM: 90
- Molecule: "N#Cc1nccnc1NCc1ccccc1CN1CCCC1CO (stereo not shown)"
  Reading Unit: "%"
  viability at 28.5 h, 10 µM: 102
- Molecule: "O=C(NCc1ccc(OC2CCNCC2)cc1)c1cccs1 [CBK036353T]"
  Reading Unit: "%"
  viability at 28.5 h, 10 µM: 89.8

----------
Assay: in vitro
Conditions: human, hela cells, % viability

- Compound: "NC(=S)NNC(=O)Nc1ccccc1"
  Reading Unit: "%"
  viability at 28.5 h, 10 µM: 96.6
- Compound: "N#Cc1ccsc1NS(=O)(=O)c1ccc(Cl)c(Cl)c1"
  Reading Unit: "%"
  viability at 28.5 h, 10 µM: 95
- Compound: "COc1ncc(-c2cn3ccnc3c(N3CCN(CCO)CC3)n2)c(OC)n1"
  Reading Unit: "%"
  viability at 28.5 h, 10 µM: 107
- Compound: "O=C(O)COc1ccc(-c2nnn(CC(=O)O)n2)cc1"
  Reading Unit: "%"
  viability at 28.5 h, 10 µM: 87.6
- Compound: "CC(C)(C)OC(=O)N1CCN(S(=O)(=O)c2ccc(Cl)c([N+](=O)[O-])c2)CC1"
  Reading Unit: "%"
  viability at 28.5 h, 10 µM: 100
- Compound: "COc1ccc(Cl)cc1NC(=O)C(=O)NCc1ccccn1"
  Reading Unit: "%"
  viability at 28.5 h, 10 µM: 90.2
- Compound: "CC(C)(C)OC(=O)NCCc1ccc(Nc2cc(-c3ccc4c(c3)OCO4)ncn2)cc1"
  Reading Unit: "%"
  viability at 28.5 h, 10 µM: 92.5
- Compound: "CCN(Cc1ccco1)C(=O)NC1CCCc2c1cnn2CCO (centres unmarked)"
  Reading Unit: "%"
  viability at 28.5 h, 10 µM: 101

----------
Test: in vitro
Details: human, hela cells, % viability, bulk resorufin, single well
# key: entry, value: viability at 28.5 h, 10 µM

- Compound: "CC(C)(C)NC(=O)N1CCC2(CC1)OCc1cc(Br)ccc1O2"
  viability at 28.5 h, 10 µM / %: 106
- Compound: "COc1cccc2c1OC1(CCN(C(=O)c3cccnc3)CC1)OC2"
  viability at 28.5 h, 10 µM / %: 95.7
- Compound: "CCOC(=O)N1CCC2(CC1)OCc1cc(-c3ccccc3CO)ccc1O2"
  viability at 28.5 h, 10 µM / %: 103
- Compound: "O=C1NC(=S)NC(=O)C1=Cc1ccc(OCc2ccccc2)c(C(=O)O)c1"
  viability at 28.5 h, 10 µM / %: 117
- Compound: "CSc1cc(C)c2c(c1)COC1(CCN(C(=O)N[C@@H](C)c3ccccc3)CC1)O2"
  viability at 28.5 h, 10 µM / %: 94.5
- Compound: "O=C1NC(=S)NC(=O)C1=NNc1ccccc1C(=O)O"
  viability at 28.5 h, 10 µM / %: 99.6
- Compound: "COc1ccccc1CCNCc1ccc(Br)cc1 [CBK015036G]"
  viability at 28.5 h, 10 µM / %: 96.2
- Compound: "COc1cc(/C=C2\\C(=O)NC(=O)N(c3cc(C)ccc3C)C2=O)ccc1O"
  viability at 28.5 h, 10 µM / %: 91
- Compound: "COc1cccc2c1OC1(CCN(C(=O)Nc3ccc(F)cc3F)CC1)OC2"
  viability at 28.5 h, 10 µM / %: 100
- Compound: "O=C(O)CCn1cc(C=C2C(=O)NC(=S)NC2=O)c(-c2cc3ccccc3oc2=O)n1"
  viability at 28.5 h, 10 µM / %: 91.8
- Compound: "O=C1NC(=O)C(=Cc2ccc(-c3ccc([N+](=O)[O-])cc3)o2)C(=O)N1"
  viability at 28.5 h, 10 µM / %: 114
